System: NCI-H522 lung
measurement-description: NCI-60 one-dose screen, 48 h (100 = growth as untreated, 0 = no growth, -100 = all killed)
test-conditions: 10 µM unless noted
About 83,000 compounds went through this panel and 20% of them were active in at least one assay; those are over-represented in the sample as a whole.
Would you mind telling me the reported growth of each entry?
Give bare numbers, in %.

Example compounds with recorded growth:
{"columns": ["compound", "assay-target", "growth, %"],
 "data": [
  ["C[N+]1=C(/C=C\\C=C\\c2ccccc2)C(C)(C)c2ccccc21", "NCI-H522 lung", -3.08],
  ["CCOC(=O)c1cnn(-c2ccc(S(N)(=O)=O)cc2)c1N", "NCI-H522 lung", 96.2],
  ["CCOC(=O)CCCn1c(-c2ccccc2)cc(-c2ccccc2)c(C#N)c1=O", "NCI-H522 lung", 70.1],
  ["CN1CCCc2cc(/C=C3\\SC(=S)N(C(Cc4ccc(O)cc4)C(=O)O)C3=O)ccc21 (centres undefined)", "NCI-H522 lung", 91.5],
  ["COc1ccc(-c2[nH]c3ccccc3c2-c2ccc(OC)cc2)cc1", "NCI-H522 lung", 55.6]
]}

Lab note: each compound below needs its growth filled in.
1. CC[C@]12CN3CCc4c([nH]c5ccccc45)[C@@](C(=O)OC)(c4cc5c(cc4OC)N(C)[C@H]4[C@@](O)(C(=O)OC)[C@H](OC(C)=O)[C@]6(CC)C=CCN7CC[C@]54[C@@H]76)CC(C3)[C@H]1O2 (some centres undefined)
2. CCNC(=S)n1nc(SC)c(C(=O)OCC)c1N
3. O=C(CN1C(=O)S/C(=C\C(Cl)=C\c2ccccc2)C1=O)NC1C=CS(=O)(=O)C1 (centres undefined)

-5.19
89.9
-46.2

Item under review: CC1=C2[C@@H](CC1)[C@]1(C)O[C@@](C(C)C)(C[C@H]1OC(=O)CO)[C@H]2OC(=O)C1CC1c1ccccc1 (some centres undefined) . Reported growth?
73.9

----------
Tested on: SR leukemia
measurement-description: NCI-60 one-dose screen, 48 h (100 = growth as untreated, 0 = no growth, -100 = all killed)
test-conditions: 10 µM unless noted
About 83,000 compounds went through this panel and 20% of them were active in at least one assay; those are over-represented in the sample as a whole.
measure: growth (%)
Answers are plain numbers, in %.

Example compounds with recorded growth:
{"columns": ["compound", "units-label", "value"],
 "data": [
  ["CN1C(=O)N(C)C2(c3ccccc3)N(CC(=O)Nc3ccccc3O)C(=O)NC12c1ccccc1 (stereo unspecified)", "%", 112],
  ["CCN(CC)CCCN1C(=O)c2c(c(C)c3c(oc4cc(OC)ccc43)c2C)C1=O", "%", -4.78],
  ["COc1cc(CNC(=O)CCCC/C=C/C(C)C)ccc1OCc1cn(-c2ccc([N+](=O)[O-])cc2)nn1", "%", 62.2],
  ["O=C(CN1C(=O)S/C(=C\\C(Cl)=C\\c2ccccc2)C1=O)NC1C=CS(=O)(=O)C1 (stereo unspecified)", "%", 6.39],
  ["C/C=C(\\C)C(=O)N[C@H]1CC[C@]2(C)C3CC[C@@]4(C)C(CC[C@@H]4C(C)N(C)C)C3CCC2[C@H]1OC(C)=O (stereo partly specified)", "%", 7.3]
]}

Lab note: each compound below needs its growth filled in.
1. COc1cc2ncnc(Nc3ccc(F)c(Cl)c3)c2cc1OCC(=O)N1CCCCC1
2. Cc1nc2sc(C(=O)Nc3cccc4ncccc34)c(N)c2cc1C(C)O (stereo unspecified)
3. C=C1CCC2C3(C)COC(c4ccc(NC(C)=O)cc4)OC3CCC2(C)C1C/C=C1/C(=O)OCC1O (stereo unspecified)
4. Cn1cc(-c2csc(-c3c[nH]c4ccc(F)cc34)n2)c2cnccc21

1: 74.6; 2: 22.4; 3: 25.2; 4: -36

Lab note: each compound below needs its growth filled in.
1. CN(C)CCCn1c2nc(=O)[nH]c(=O)c-2nc2cc(Cl)c(Cl)cc21
2. CCOc1nc(-c2ccccc2)cc2c(O)c(C(=O)N/N=C/c3ccc(N(C)C)cc3)[nH]c(=O)c12

1: 83.7; 2: 101
